Please go through the items and note down their EC50.
Target: T1, monkey IL-23R-mouse Fc fusion protein (monkey; mouse)
T1 construct: extracellular domain; also called monkey IL-23R-Fc fusion protein
Experiment: antigen ELISA, monkey IL-23R-mouse Fc immobilized, HRP anti-human IgG, chemiluminescence

EC50 for fully human 25-3-2 (antibody, human IgG1, kappa, V domains shown, human Ig gamma1 / kappa) VH: QVQLQESGPGLVKPSQTLSLTCSVSGGSIDSGDHYWTWIRQHPGKGLEWIGYIYSSGHTYYSPSLKSRVTISVDTSKNQFSLRLSSVTAADTAVYYCARVGDYEWFDTWGQGTLVTVSS VL: DIVMTQSPDSLAVSLGERATINCKSSQTILYPSNNMNYLGWYQQKPGQSPRLLIYWASTRESGVPDRFSGSGSGTDFTLTISSLQAEDVAVYYCQQYYSSLPTFGQGTKVEIKR ?
0.0122 µg/mL

# get_value(readout='EC50', item= fully human 25-3-1 (antibody, human IgG1, kappa, V domains shown, human Ig gamma1 / kappa) VH: QVQLQESGPGLVKPSQTLSLTCSVSGGSIDSGDHYWTWIRQHPGKGLEWIGYIYSSGHTYYSPSLKSRVTISVDTSKNQFSLRLSSVTAADTAVYYCARVGDYEWFDTWGQGTLVTVSS VL: DIVMTQSPDSLAVSLGERATINCKSSQTILYPSNNMNYLGWYQQRAGQSPRLLIYWASTRESGVPDRFSGSGSGTDFTLTISSLQAEDVAVYYCQQYYSSLPTFGQGTKVEIKR )
0.0124 µg/mL

Return reported EC50; argument: fully human 25-3 (antibody, human IgG1, kappa, V domains shown, Human Ig gamma1 / human kappa constant regions; expressed in CHO-K1SV cells; also called fully human antibody of 25-3) VH: QVQLQESGPGQVKPSQTLSLTCSVSGGSIDSGDHYWTWIRQHPGEVLEWIGYIYSSGHTYYSPSLKSRLTMSLDTSKNQFSLRLSSVTAADTAVYYCARVGDYEWFDTWGQGTLVTVSS VL: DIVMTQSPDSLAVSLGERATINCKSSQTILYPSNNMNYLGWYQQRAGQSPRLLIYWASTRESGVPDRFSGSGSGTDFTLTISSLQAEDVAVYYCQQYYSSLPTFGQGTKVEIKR
0.0123 µg/mL
